# system: human CB2 receptor (Homo sapiens)
# Sequence (P34972 whole entry): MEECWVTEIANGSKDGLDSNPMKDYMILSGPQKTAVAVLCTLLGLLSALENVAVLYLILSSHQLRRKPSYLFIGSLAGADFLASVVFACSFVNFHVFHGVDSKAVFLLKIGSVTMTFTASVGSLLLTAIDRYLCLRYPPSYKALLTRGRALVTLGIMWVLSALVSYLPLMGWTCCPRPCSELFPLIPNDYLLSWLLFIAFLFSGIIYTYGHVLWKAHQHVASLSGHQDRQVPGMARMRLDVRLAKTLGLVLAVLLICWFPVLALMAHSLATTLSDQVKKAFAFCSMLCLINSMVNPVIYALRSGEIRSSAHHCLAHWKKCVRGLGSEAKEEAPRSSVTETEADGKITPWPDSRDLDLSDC
property label: IC50

These recorded examples may help you get a feel for the data.
CCCCCc1cc(O)c(C2C=C(C)CCC2)c(O)c1-c1cccnc1 (centres unmarked) [Compound 12c]    500 to 990 nM
C=C(C)[C@@H]1CCC(C)=C[C@H]1c1c(O)cc(CCCCC)c(-c2ccncc2)c1O [Compound 14d]    1000 to 4990 nM
C=C(C)[C@@H]1CCC(C)=C[C@H]1c1c(O)cc(CCCCC)c(-c2cn[nH]c2)c1O [Compound 41d]    1000 to 4990 nM
CCCCCc1cc(O)c(C2C=C(C)CCC2)c(O)c1-c1nnn[nH]1 (centres unmarked)    1000 to 4990 nM

What measured IC50 is associated with C=C(C)[C@@H]1CCC(C)=C[C@H]1c1c(O)cc(CCCCC)c(-c2ccnc(C)c2)c1O [Compound 35d] on human CB2 receptor (Homo sapiens)? 1000 to 4990 nM

* * *

# system: human CB1 receptor (Homo sapiens, UniProt P21554)
# Construct: host or cells: CHO-K1
# Sequence (P21554 whole entry): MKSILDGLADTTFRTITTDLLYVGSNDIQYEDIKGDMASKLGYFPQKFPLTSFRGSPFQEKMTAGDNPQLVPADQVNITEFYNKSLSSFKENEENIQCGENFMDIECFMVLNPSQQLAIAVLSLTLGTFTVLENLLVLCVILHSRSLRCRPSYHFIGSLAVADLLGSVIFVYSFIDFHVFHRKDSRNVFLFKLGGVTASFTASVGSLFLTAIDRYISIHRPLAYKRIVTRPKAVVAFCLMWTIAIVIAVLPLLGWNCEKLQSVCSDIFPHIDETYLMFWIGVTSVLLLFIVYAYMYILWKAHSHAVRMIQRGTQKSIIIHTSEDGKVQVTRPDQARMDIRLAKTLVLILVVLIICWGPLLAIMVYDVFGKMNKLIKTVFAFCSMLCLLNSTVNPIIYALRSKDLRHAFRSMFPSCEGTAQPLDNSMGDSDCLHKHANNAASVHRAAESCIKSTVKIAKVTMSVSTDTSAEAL
# protocol: CB1 radioligand competitive binding assay ([3H]CP 55,940 displacement)
property label: IC50

These recorded examples may help you get a feel for the data.
C=C(C)[C@@H]1CCC(C)=C[C@H]1c1c(O)cc(CCCCC)c(-c2ccco2)c1O [Compound 15d]    > 5 µM
CCCCCc1cc(O)c(C2C=C(C)CCC2)c(O)c1-c1cncnc1 (stereo not shown) [Compound 13c]    1 to 4.99 µM
C=C(C)[C@@H]1CCC(C)=C[C@H]1c1c(O)cc(CCCCC)c(-c2nnn[nH]2)c1O    1 to 4.99 µM

With those in mind, consider the next molecule.
So what's the measured IC50 for this one? CCCCCc1cc(O)c(C2C=C(C)CCC2)c(O)c1-c1ccco1 (stereo not shown) [Compound 15c] 1 to 4.99 µM
